These entries and their values trace back to paper PMC10017027.

Listed here are molecules together with their documented PBS sol.
Test: Solubility assessment, shake-flask method
Format: physicochemical
Settings: supplement CSV
Respond numerically; units are µM and should not be typed.

Cc1cc(/C=C/C#N)cc(C)c1-n1c(=O)[nH]c2cnc(Nc3ccc(C#N)cc3)nc21 [Compound 2]    10.4
Cc1cc(/C=C/C#N)cc(C)c1N1CCC(=O)Nc2cnc(Nc3ccc(C#N)cc3)nc21 [Compound 6]    2.3

Query block: Using the record for Cc1cc(C#N)cc(C)c1N1CCC(=O)Nc2cnc(Nc3ccc(C#N)cc3)nc21 [Compound 5] , report its PBS sol.
Result block: 1.4

Query block: Using the record for Cc1cc(/C=C/C#N)cc(C)c1N1CC(=O)Nc2cnc(Nc3ccc(C#N)cc3)nc21 [Compound 4] , report its PBS sol.
Result block: 1.8

Query block: Using the record for Cc1cc(C#N)cc(C)c1N1CC(=O)Nc2cnc(Nc3ccc(C#N)cc3)nc21 [Compound 3] , report its PBS sol.
Result block: 2.3

Query block: Using the record for Cc1cc(C#N)cc(C)c1-n1c(=O)[nH]c2cnc(Nc3ccc(C#N)cc3)nc21 [Compound 1] , report its PBS sol.
Result block: 6.6

* * *

Assay: MDCK permeability assay (A to B)
Assay type: in vitro ADME, Canine
Conditions: dog, MDCK; supplement CSV
Entries whose Papp A→B at 120 min is below 4 ×10⁻⁶ cm/s take rule met; entries at or above 4 ×10⁻⁶ cm/s take rule not met.

Example entries begin here.
Cc1cc(/C=C/C#N)cc(C)c1-n1c(=O)[nH]c2cnc(Nc3ccc(C#N)cc3)nc21    rule not met
Cc1cc(/C=C/C#N)cc(C)c1Nc1ccnc(Nc2ccc(C#N)cc2)n1 [RPV, rilpivirine, reference compound]    rule not met

Query block: For this molecule, is Papp A→B at 120 min lower than 4 ×10⁻⁶ cm/s? Cc1cc(C#N)cc(C)c1Oc1nc(Nc2ccc(C#N)cc2)nc(N)c1Br [ETV, etravirine, reference compound]
Result block: rule met

Query block: For this molecule, is Papp A→B at 120 min lower than 4 ×10⁻⁶ cm/s? Cc1cc(C#N)cc(C)c1N1CCC(=O)Nc2cnc(Nc3ccc(C#N)cc3)nc21
Result block: rule met

Query block: For this molecule, is Papp A→B at 120 min lower than 4 ×10⁻⁶ cm/s? Cc1cc(/C=C/C#N)cc(C)c1N1CC(=O)Nc2cnc(Nc3ccc(C#N)cc3)nc21
Result block: rule not met

Query block: For this molecule, is Papp A→B at 120 min lower than 4 ×10⁻⁶ cm/s? Cc1cc(/C=C/C#N)cc(C)c1N1CCC(=O)Nc2cnc(Nc3ccc(C#N)cc3)nc21
Result block: rule met

Query block: For this molecule, is Papp A→B at 120 min lower than 4 ×10⁻⁶ cm/s? Cc1cc(C#N)cc(C)c1-n1c(=O)[nH]c2cnc(Nc3ccc(C#N)cc3)nc21
Result block: rule not met

* * *

Tested on: HIV-1 HXB2 K103N variant
Experiment: MT-4 antiviral cytopathic effect assay, HXB2-K103N
Format: cell-based
Conditions: Human immunodeficiency virus 1, HXB2, read-out: EC50 K103N
Measurement type: pEC50
As a rule, pEC50 stands for the negative log10 of the concentration, concentration in M.

Solved entries:
Cc1cc(/C=C/C#N)cc(C)c1N1CC(=O)Nc2cnc(Nc3ccc(C#N)cc3)nc21    8.55
Cc1cc(C#N)cc(C)c1-n1c(=O)[nH]c2cnc(Nc3ccc(C#N)cc3)nc21    6.64
Cc1cc(C#N)cc(C)c1N1CC(=O)Nc2cnc(Nc3ccc(C#N)cc3)nc21    7.34
Cc1cc(C#N)cc(C)c1Oc1nc(Nc2ccc(C#N)cc2)nc(N)c1Br [ETV, etravirine, reference compound]    8.64
Cc1cc(C#N)cc(C)c1N1CCC(=O)Nc2cnc(Nc3ccc(C#N)cc3)nc21    7.15

Query block: Query the reported pEC50 for HIV-1 HXB2 K103N variant; item: Cc1cc(/C=C/C#N)cc(C)c1N1CCC(=O)Nc2cnc(Nc3ccc(C#N)cc3)nc21
Result block: 8.32

Query block: Query the reported pEC50 for HIV-1 HXB2 K103N variant; item: Cc1cc(/C=C/C#N)cc(C)c1-n1c(=O)[nH]c2cnc(Nc3ccc(C#N)cc3)nc21
Result block: 8.35

Query block: Query the reported pEC50 for HIV-1 HXB2 K103N variant; item: Cc1cc(/C=C/C#N)cc(C)c1Nc1ccnc(Nc2ccc(C#N)cc2)n1 [RPV, rilpivirine, reference compound]
Result block: 8.82

* * *

Test system: HIV-1 HXB2 Y181C variant
Experiment: MT-4 antiviral cytopathic effect assay, HXB2-Y181C
Assay type: cell-based
Settings: supplement CSV; fold change vs HXB2
Experimental: The prepared compounds were tested for their anti-HIV-1 activity (Table 1). A viral cytopathic effect assay in MT-4 cells with HIV-1 IIIB virus was used to determine compound potency (EC50, 50% cell viability) in protecting virus induced cell killing. Compound cytotoxicity was assessed in MT-4 cells in the absence of virus (CC50, 50% cytotoxicity). […] ETV contains bromo and amino substitutions on the DAPY core. […]
Measurement type: Y181C (FC)
Format: numeric value only, no unit, no commentary.

Solved entries:
Cc1cc(/C=C/C#N)cc(C)c1N1CCC(=O)Nc2cnc(Nc3ccc(C#N)cc3)nc21    6.5
Cc1cc(C#N)cc(C)c1-n1c(=O)[nH]c2cnc(Nc3ccc(C#N)cc3)nc21    3.3
Cc1cc(/C=C/C#N)cc(C)c1-n1c(=O)[nH]c2cnc(Nc3ccc(C#N)cc3)nc21    4.8
Cc1cc(/C=C/C#N)cc(C)c1Nc1ccnc(Nc2ccc(C#N)cc2)n1 [RPV, rilpivirine, reference compound]    3.2
Cc1cc(C#N)cc(C)c1N1CCC(=O)Nc2cnc(Nc3ccc(C#N)cc3)nc21    6.7

Query block: Using the record for Cc1cc(C#N)cc(C)c1N1CC(=O)Nc2cnc(Nc3ccc(C#N)cc3)nc21 , report its Y181C (FC).
Result block: 3.7

Query block: Using the record for Cc1cc(C#N)cc(C)c1Oc1nc(Nc2ccc(C#N)cc2)nc(N)c1Br [ETV, etravirine, reference compound] , report its Y181C (FC).
Result block: 4.8

Query block: Using the record for Cc1cc(/C=C/C#N)cc(C)c1N1CC(=O)Nc2cnc(Nc3ccc(C#N)cc3)nc21 , report its Y181C (FC).
Result block: 2.0

* * *

Assay: in vitro
Assay type: cell-based
Settings: human
Measurement type: CC50 at 120 h
State the value with its unit after it.

Solved entries:
Cc1cc(/C=C/C#N)cc(C)c1N1CCC(=O)Nc2cnc(Nc3ccc(C#N)cc3)nc21    25.8 µM
Cc1cc(CO)cc(C)c1N1CCC(=O)Nc2cnc(Nc3ccc(C#N)cc3)nc21    15.9 µM

# input for lookup
Query block: Using the record for Cc1cc(C#N)cc(C)c1Oc1nc(Nc2ccc(C#N)cc2)nc(N)c1Br [ETV, etravirine, reference compound] , report its CC50 at 120 h.
Result block: 7.3 µM
